- Test system: HIV-1 integrase (with human LEDGF/p75)
- experiment: blockers of LEDGF/p75-dependent integrase strand transfer – biochemical, TR-FRET, high throughput, primary screen (AID 743269);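 further: signal is the Cy5 over europium emission ratio at 671 and 618 nm; 0% = plate median of compound wells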
- cond: TR-FRET IN-LEDGF/p75 DNA integration, Eu/Cy5; at 3.7 µM
Among all 370,000 compounds or so, about 2,400 (0.65%) were called active.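 How the source made its calls: active means inhibition above the screen-wide mean plus 3 SD (cut at about 13% in these data); inactive means the rest.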 For the sample, actives were picked, then their nearest neighbours and some compounds at random.
Could you please pick one outcome from this set? label 1 for active, label 0 for inactive

Illustrative cases are given below, each with its answer.
Call for entry Cc1ccc(-n2c(SCC(=O)Nc3ccc(S(=O)(=O)Nc4nccs4)cc3)nnc2-c2ccncc2)cc1 :
label 0

Call for entry Nn1c(SCC(=O)Nc2ccc(S(N)(=O)=O)cc2)nnc1-c1n[nH]c2c1CCC2 :
label 0

Call for entry Oc1ccc(N=Cc2sc3ccccc3c2Cl)cc1 :
label 1

New cases:
Call for entry COc1ccc(CCNC(=O)CSc2nc3c([nH]2)c(=O)n(C)c(=O)n3C)cc1 :
label 0

Call for entry C=CCN1[C@@H](Cc2ccccc2)COc2cccc(N3CCSCC3)c2S1(=O)=O :
label 0

Call for entry CCn1c(=O)n2n(c1=O)[C@@]1(C=C3CCCC[C@H]32)N=C(NC(=O)c2ccccc2)N(Cc2ccccc2)[C@H]1Cc1ccccc1 :
label 0

Call for entry C#CCCN([C@H](C(=O)OC)C(C)C)S(=O)(=O)c1ccc(F)cc1Br :
label 0

Call for entry CCC(C)[C@@H](C(=O)OC)N(CCc1cn(Cc2ccccc2)nn1)S(=O)(=O)c1ccccc1Br (some centres undefined) :
label 0

Call for entry CCn1c2ccccc2c2cc(NC(=O)CSc3nnc(-c4ccccc4)n3-c3ccc(C)cc3)ccc21 :
label 0
